Target: HSP90a protein (Homo sapiens)
Construct: purchased BPS Bioscience 50298
Test: HSP90α-binding fluorescent polarization (FP) assay, BODIPY-labeled RNK04010 probe
Settings: FP competition with RNK04010 (BODIPY-labeled), 5 nM, 300 min at 25° C.
This listing pairs compounds with measured IC50.

structure-as-smiles: CCC(=O)N1CCN(c2nc(NCCC(=O)N3CCC(Cc4ccc(-n5c(O)nnc5-c5cc(C(C)C)c(O)cc5O)cc4)CC3)nc3c2CCN(c2cc(O)cc4ccccc24)C3)CC1
study-system: HSP90a protein (Homo sapiens)
value-reported: 100 to 1000 nM
--
structure-as-smiles: C=CC(=O)N1CCN(c2nc(OCCN3CCN(Cc4ccc(-n5c(O)nnc5-c5cc(C(C)C)c(O)cc5O)cc4)CC3)nc3c2CCN(c2cccc4cccc(Cl)c24)C3)C[C@@H]1CC#N
study-system: HSP90a protein (Homo sapiens)
value-reported: < 100 nM

Which IC50 is reported for this compound? CCc1cc(-c2nnc(O)n2-c2ccc(CNC(=O)CCNc3nc4c(c(N5CCN(C(C)=O)CC5)n3)CCN(c3cc(O)cc5ccccc35)C4)c(C(F)(F)F)c2)c(O)cc1O
> 1000 nM

What value of IC50 has been recorded for this entry: CCC(=O)N1CCN(c2nc(N3CCC(CN4CCN(Cc5ccc(-n6c(O)nnc6-c6cc(C(C)C)c(O)cc6O)cc5)CC4)CC3)nc3c2CCN(c2cccc4cccc(Cl)c24)C3)C[C@@H]1CC#N
100 to 1000 nM

Which measured IC50 value corresponds to C=CC(=O)N1CCN(c2nc(OCC3CN(Cc4ccc(-n5c(O)nnc5-c5cc(C)c(O)cc5O)cc4)C3)nc3c2CCN(c2cccc4cccc(Cl)c24)C3)C[C@@H]1CC#N ?
< 100 nM

====

Biological target: KRAS(G12C) (Homo sapiens, UniProt P01116, G12C)
Sequence (P01116 1-188 isoform P01116-2 G12C): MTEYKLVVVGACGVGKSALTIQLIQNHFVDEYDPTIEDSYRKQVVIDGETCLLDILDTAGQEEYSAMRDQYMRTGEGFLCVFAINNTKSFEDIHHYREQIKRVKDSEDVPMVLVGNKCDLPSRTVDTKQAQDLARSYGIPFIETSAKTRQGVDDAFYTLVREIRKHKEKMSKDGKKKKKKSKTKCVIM
Experiment: KRAS(G12C) Western blot protein degradation assay in LU65A cells
Type: cell-based
Set-up: LU65A human lung cancer cell line, which expresses KRAS(G12C); host or cells: LU65A
Conditions: 6 hr
Listing of recorded DC50 by entry.

structure-as-smiles: C=CC(=O)N1CCN(c2nc(OC[C@@H]3C[C@H](N4CCN(C(=O)C5CCN(Cc6ccc(-n7c(O)nnc7-c7cc(C)c(O)cc7O)cc6)CC5)CC4)CN3C)nc3c2CCN(c2cccc4cccc(Cl)c24)C3)C[C@@H]1CC#N
DC50: > 1000 nM

Consider now this further molecule.
Return reported DC50; argument: C=CC(=O)N1CCN(c2nc(OC[C@@H]3C[C@H](C(=O)N4CCN(Cc5ccc(-n6c(C(=O)NCC(F)(F)F)nnc6-c6cc(C)c(O)cc6O)cc5)CC4)CN3C)nc3c2CCN(c2cccc4cccc(Cl)c24)C3)C[C@@H]1CC#N
> 1000 nM

====

Known pIC50 of a selection of compounds
Molecular target: KRAS(G12C) (Homo sapiens, UniProt P01116, G12C)
Test: KRAS(G12C)/SOS1 homogeneous time-resolved fluorescence (HTRF) assay
Conditions: absence of GTP, 4° C. for 3 hr, read-out: KRAS (G12C) binding
pIC50: −log10 of the molar value.

compound: C=CC(=O)N1CCN(c2nc(OC[C@@H]3CCN3C(=O)C3CCN(Cc4ccc(-n5c(C(N)=O)nnc5-c5cc(C(C)C)c(O)cc5O)cc4)CC3)nc3c2CCN(c2cccc4cccc(Cl)c24)C3)C[C@@H]1CC#N [Compound 190]
pIC50: 6.00 to 7.00

Request the reported pIC50 associated with C=CC(=O)N1CCN(c2nc(NCCC(=O)NCCc3ccc(CN4CCC(Cc5ccc(-n6c(C(=O)NCC(F)(F)F)nnc6-c6cc(C(C)C)c(O)cc6O)cc5)CC4)cc3)nc3c2CCN(c2cc(O)cc4ccccc24)C3)CC1 [Compound 24, trifluoroacetic acid]
< 6.00

Recorded pIC50 of C=CC(=O)N1CCN(c2nc(OCCN3CCN(Cc4ccc(-n5c(O)nnc5-c5cc(C)c(O)cc5O)cc4)CC3)nc3c2CCN(c2cccc4cccc(Cl)c24)C3)C[C@@H]1CC#N [Compound 213] , please.
6.00 to 7.00

Returns the measured pIC50 for the input compound. Input: C=CC(=O)N1CCN(c2nc(OC[C@@H]3CC[C@H](CN4CCN(C(=O)C5CCN(Cc6ccc(-n7c(C(=O)NCC)nnc7-c7cc(C(C)C)c(O)cc7O)cc6)CC5)CC4)N3C)nc3c2CCN(c2cccc4cccc(Cl)c24)C3)C[C@@H]1CC#N [Compound 240]
> 7.00

====

Molecular target: KRAS(G12C) (Homo sapiens, UniProt P01116, G12C)
Experiment: KRAS(G12C) Western blot protein degradation assay in MIA PaCa-2 cells;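 also: cells are MIA PaCa-2 not LU65A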
Format: cell-based
Set-up: host or cells: LU65A
Details: 2500 nM, 48 hr
result-type: inhibition at 2.5 µM

Some compounds with recorded inhibition at 2.5 µM:
compound: C=CC(=O)N1CCN(c2nc(OC[C@@H]3CCN(C(=O)C4CCN(Cc5ccc(-n6c(C(=O)NCC(F)(F)F)nnc6-c6cc(C(C)C)c(O)cc6O)cc5)CC4)C3)nc3c2CCN(c2cccc4cccc(Cl)c24)C3)C[C@@H]1CC#N [Compound 185]
inhibition at 2.5 µM: > 66%
//
compound: C=CC(=O)N1CCN(c2nc(OC[C@@H]3CCN(C(=O)C4CCN(Cc5ccc(-n6c(O)nnc6-c6cc(C(C)C)c(O)cc6O)cc5)CC4)C3)nc3c2CCN(c2cccc4cccc(Cl)c24)C3)C[C@@H]1CC#N [Compound 148]
inhibition at 2.5 µM: < 33%
//
compound: C=CC(=O)N1CCN(c2nc(OC[C@@H]3CCCN3C(=O)C3CCN(Cc4ccc(-n5c(O)nnc5-c5cc(C(C)C)c(O)cc5O)cc4)CC3)nc3c2CCN(c2cccc4cccc(Cl)c24)C3)C[C@@H]1CC#N [Compound 139]
inhibition at 2.5 µM: < 33%
//
compound: C=CC(=O)N1CCN(c2nc(OC[C@@H]3CCN(C(=O)c4cc(CC)c(O)cc4O)C3)nc3c2CCN(c2cccc4cccc(Cl)c24)C3)C[C@@H]1CC#N [Compound 158]
inhibition at 2.5 µM: < 33%
//
compound: C=CC(=O)N1CCN(c2nc(OC[C@@H]3CCN(C(=O)c4cc(C(C)C)c(O)cc4OC)C3)nc3c2CCN(c2cccc4cccc(Cl)c24)C3)C[C@@H]1CC#N [Compound 153]
inhibition at 2.5 µM: < 33%
//
compound: C=CC(=O)N1CCN(c2nc(OC[C@@H]3CCN(C(=O)c4cc(C(C)C)c(O)cc4O)C3)nc3c2CCN(c2cccc4cccc(Cl)c24)C3)C[C@@H]1CC#N [Compound 157]
inhibition at 2.5 µM: < 33%
//
compound: C=CC(=O)N1CCN(c2nc(OC[C@@H]3CCN(C(=O)c4cc(C(C)C)c(OC)cc4O)C3)nc3c2CCN(c2cccc4cccc(Cl)c24)C3)C[C@@H]1CC#N [Compound 159]
inhibition at 2.5 µM: < 33%
//
compound: C=C(F)C(=O)N1CCN(c2nc(OC[C@@H]3CCN(C(=O)C4CCN(Cc5ccc(-n6c(C(=O)NCC(F)(F)F)nnc6-c6cc(C(C)C)c(O)cc6O)cc5)CC4)C3)nc3c2CCN(c2cccc4cccc(Cl)c24)C3)C[C@@H]1CC#N [Compound 168]
inhibition at 2.5 µM: 33 to 66%

Would you kindly share the measured inhibition at 2.5 µM for C=CC(=O)N1CCN(c2nc(NCCC(=O)N3CCC(Cc4ccc(CN(C)Cc5ccc(-n6c(C(=O)NCC(F)(F)F)nnc6-c6cc(C(C)C)c(O)cc6O)cc5)cc4)CC3)nc3c2CCN(c2cc(O)cc4ccccc24)C3)CC1 [Compound 16, trifluoroacetic acid] ?
< 33%

// returns reported inhibition at 2.5 µM for input C=CC(=O)N1CCN(c2nc(OC[C@@H]3CCN(C(=O)C4CCN(Cc5ccc(-n6c(C(N)=O)nnc6-c6cc(C(C)C)c(O)cc6O)cc5)CC4)C3)nc3c2CCN(c2cccc4cccc(Cl)c24)C3)C[C@@H]1CC#N [Compound 183]
33 to 66%

====

inhibition at 5 µM reference
Target: KRAS(G12C) (Homo sapiens, UniProt P01116, G12C)
Test: KRAS(G12C) Western blot protein degradation assay in MIA PaCa-2 cells;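 also: cells are MIA PaCa-2 not LU65A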
Type: cell-based
Design: host or cells: LU65A
Settings: 5000 nM, 48 hr

# count of solved cases: 5
compound: C=CC(=O)N1CCN(c2nc(OC[C@@H]3CCCN3C(=O)C3CCN(Cc4ccc(-n5c(O)nnc5-c5cc(C(C)C)c(O)cc5O)cc4)CC3)nc3c2CCN(c2cccc4cccc(Cl)c24)C3)C[C@@H]1CC#N [Compound 139]
inhibition at 5 µM: < 33%

compound: C=CC(=O)N1CCN(c2nc(OC[C@@H]3CCN(C(=O)C4CCN(Cc5ccc(-n6c(O)nnc6-c6cc(C(C)C)c(O)cc6O)cc5)CC4)C3)nc3c2CCN(c2cccc4cccc(Cl)c24)C3)C[C@@H]1CC#N [Compound 148]
inhibition at 5 µM: < 33%

compound: C=CC(=O)N1CCN(c2nc(OC[C@@H]3CCN(C(=O)C4CCN(Cc5ccc(-n6c(C(=O)NCC(F)(F)F)nnc6-c6cc(C(C)C)c(O)cc6O)cc5)CC4)C3)nc3c2CCN(c2cccc4cccc(Cl)c24)C3)C[C@@H]1CC#N [Compound 185]
inhibition at 5 µM: > 66%

compound: C=CC(=O)N1CCN(c2nc(OC[C@@H]3CCN(C(=O)c4cc(C(C)C)c(O)cc4OC)C3)nc3c2CCN(c2cccc4cccc(Cl)c24)C3)C[C@@H]1CC#N [Compound 153]
inhibition at 5 µM: < 33%

compound: C=C(F)C(=O)N1CCN(c2nc(OC[C@@H]3CCN(C(=O)C4CCN(Cc5ccc(-n6c(C(=O)NCC(F)(F)F)nnc6-c6cc(C(C)C)c(O)cc6O)cc5)CC4)C3)nc3c2CCN(c2cccc4cccc(Cl)c24)C3)C[C@@H]1CC#N [Compound 168]
inhibition at 5 µM: 33 to 66%

inhibition at 5 µM lookup needed for C=CC(=O)N1CCN(c2nc(NCCC(=O)N3CCC(Cc4ccc(CN(C)Cc5ccc(-n6c(C(=O)NCC(F)(F)F)nnc6-c6cc(C(C)C)c(O)cc6O)cc5)cc4)CC3)nc3c2CCN(c2cc(O)cc4ccccc24)C3)CC1 [Compound 16, trifluoroacetic acid] , thanks.
< 33%

Consider the compound C=CC(=O)N1CCN(c2nc(OC[C@@H]3CCN(C(=O)c4cc(C(C)C)c(OC)cc4O)C3)nc3c2CCN(c2cccc4cccc(Cl)c24)C3)C[C@@H]1CC#N [Compound 159] and give its measured inhibition at 5 µM.
< 33%

Which inhibition at 5 µM reading was recorded for the compound C=CC(=O)N1CCN(c2nc(OC[C@@H]3CCN(C(=O)C4CCN(Cc5ccc(-n6c(C(N)=O)nnc6-c6cc(C(C)C)c(O)cc6O)cc5)CC4)C3)nc3c2CCN(c2cccc4cccc(Cl)c24)C3)C[C@@H]1CC#N [Compound 183] ?
> 66%

Fill in: inhibition at 5 µM of C=CC(=O)N1CCN(c2nc(OC[C@@H]3CCN(C(=O)c4cc(CC)c(O)cc4O)C3)nc3c2CCN(c2cccc4cccc(Cl)c24)C3)C[C@@H]1CC#N [Compound 158] is ___
< 33%

If you can, please state the reported inhibition at 5 µM value of C=CC(=O)N1CCN(c2nc(OC[C@@H]3CCN(C(=O)c4cc(C(C)C)c(O)cc4O)C3)nc3c2CCN(c2cccc4cccc(Cl)c24)C3)C[C@@H]1CC#N [Compound 157] .
< 33%
